- PROCEDURE TEXT: Terminal half life in rat at 20 mg/kg, po
- Type: ADME, organism-based
- Design: dose 20 mg/kg, route oral
- EXPERIMENTAL PARAMETERS: in vivo, read-out: beta t1/2 (converted)
Kindly apply the following: 1 if half-life is less than 2 h, 0 in every other case.

[[record]]
smiles_repr = "Cl.N[C@@H](CC(=O)N1CCn2nnc(-c3ccco3)c2C1)Cc1cc(F)c(F)cc1F"
group = 1

[[record]]
smiles_repr = "Cl.N[C@@H](CC(=O)N1CCn2nnc(C(F)F)c2C1)Cc1cc(F)c(F)cc1F"
group = 0

[[record]]
smiles_repr = "N[C@@H](CC(=O)N1CCn2nnc(-c3ccccn3)c2C1)Cc1cc(F)c(F)cc1F.O=C(O)/C=C/C(=O)O"
group = 0

[[record]]
smiles_repr = "N[C@@H](CC(=O)N1CCn2nnc(C(F)(F)F)c2C1)Cc1cc(F)c(F)cc1F.O=C(O)/C=C/C(=O)O"
group = 0

[[record]]
smiles_repr = "N[C@@H](CC(=O)N1CCn2nnc(-c3cnco3)c2C1)Cc1cc(F)c(F)cc1F.O=C(O)/C=C/C(=O)O"
group = 1

[[record]]
smiles_repr = "Cl.N[C@@H](CC(=O)N1CCn2nnc(-c3ccc(C(=O)O)cc3)c2C1)Cc1cc(F)c(F)cc1F"
group = 0

[[record]]
smiles_repr = "Cl.NC(=O)c1nnn2c1CN(C(=O)C[C@H](N)Cc1cc(F)c(F)cc1F)CC2"
group = 0

